Measured values drawn from patent US7435837B2 for this set.

Please go through the items and note down their Ki.
Biological target: human 5-hydroxytryptamine-2C (h5-HT2C) receptor (Homo sapiens, UniProt P28335)
Construct: expressed in transfected cells; host or cells: CHO (Chinese Hamster Ovary) cells; membranes
Sequence (P28335 33-458): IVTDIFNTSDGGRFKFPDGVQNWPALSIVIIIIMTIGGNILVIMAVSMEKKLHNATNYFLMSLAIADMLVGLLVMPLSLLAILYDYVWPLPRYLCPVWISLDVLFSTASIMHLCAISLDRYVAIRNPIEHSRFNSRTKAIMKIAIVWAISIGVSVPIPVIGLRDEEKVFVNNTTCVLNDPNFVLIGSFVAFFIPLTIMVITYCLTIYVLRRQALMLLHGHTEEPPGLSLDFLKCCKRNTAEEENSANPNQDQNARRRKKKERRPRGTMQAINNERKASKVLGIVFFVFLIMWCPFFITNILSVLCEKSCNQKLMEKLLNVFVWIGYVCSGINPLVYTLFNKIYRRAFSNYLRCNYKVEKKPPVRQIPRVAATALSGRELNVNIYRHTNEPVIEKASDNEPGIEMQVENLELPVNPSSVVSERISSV
Assay: [125I]DOI binding to membranes of CHO cells expressing the human 5-HT2C receptor
Details: [125I]DOI radioligand, CHO cell membranes, room temperature 60 min; read-out: 5-HT2C Affinity Ki
Respond with the bare value in nM.

## Task Tell us which Ki value is on record for NCC1Cc2cc(Cl)cc(-c3cc(F)ccc3F)c2O1 (racemic)
## Result 5

## Task Tell us which Ki value is on record for NCC1Cc2cc(Cl)cc(-c3ccccc3)c2O1 (single isomer, unassigned; (+)) [Example 85]
## Result 5

## Task Tell us which Ki value is on record for NCC1Cc2cc(C(F)(F)F)cc(-c3ccc(C(F)(F)F)cc3)c2O1 (racemic)
## Result 255

## Task Tell us which Ki value is on record for Cc1cccc(C)c1-c1cccc2c1CC(CN)O2 (single isomer, unassigned; (-)) [Example 127]
## Result 20

## Task Tell us which Ki value is on record for NCC1Cc2cc(F)cc(-c3ccncc3)c2O1 (racemic)
## Result 2.3

## Task Tell us which Ki value is on record for Cc1cc2c(c(-c3ccc(Cl)cc3Cl)c1)OC(CN)C2 (single isomer, unassigned; (-)) [Example 298]
## Result 11

## Task Tell us which Ki value is on record for CNCC1Cc2cc(OC)cc(-c3c(C)cccc3C)c2O1 (racemic) [Example 504]
## Result 1.2

## Task Tell us which Ki value is on record for CNCC1Cc2cc(-c3cccc(C)c3)cc(F)c2O1 (racemic)
## Result 1520
